For each entry below, report its GI50 value.
Tested on: H460 cells
Assay: Cell growth inhibition bioassay (sulforhodamine B)
Type: cell-based, human
Conditions: Homo sapiens, NCI-H460; 48 h, SRB; read-out: GI50 in indicated cell line: H460
Use µg/mL as the unit, but write only the number.

Identify the measured GI50 of `C(=N/Nc1ncnc2sc3c(c12)CCCC3)/c1ccncc1` for H460 cells. 52.4

Try `COc1cc(/C=N\Nc2ncnc3sc4c(c23)CCCC4)cc(OC)c1OC` next. 11.3

Try `C(=N/Nc1ncnc2sc3c(c12)CCCC3)/c1ccc2ccccc2c1` next. 7.4

Try `FC(F)(F)c1ccc(/C=N\Nc2ncnc3sc4c(c23)CCCC4)cc1` next. 5.8

Try `COc1ccc(/C=N\Nc2ncnc3sc4c(c23)CCCC4)cc1` next. 5.8

Try `Clc1ccc(/C=N\Nc2ncnc3sc4c(c23)CCCC4)cc1` next. 4.4

Try `C=CCOc1cc(/C=N\Nc2ncnc3sc4c(c23)CCCC4)cc(OCC=C)c1Br` next. 1.6

Try `CC(C)c1ccc(/C=N\Nc2ncnc3sc4c(c23)CCCC4)cc1` next. 2.1

Try `C(=N/Nc1ncnc2sc3c(c12)CCCC3)/c1ccccn1` next. 0.123

Try `C(=N/Nc1ncnc2sc3c(c12)CCCC3)/c1ccco1` next. 2.1
